Test: Selectivity for HDAC10 over HDAC1
Can you tell me Ratio IC50 for the items I'm about to list?
Give bare numbers.

Sample answers from the record:
COMPOUND: O=C(CCCCCCC(=O)Nc1ccc(-c2cn(Cc3ccc(F)cc3)nn2)cc1)NO
REPORTED VALUE: 0.9
--
COMPOUND: O=C(CCCCCCC(=O)Nc1cccc(-c2cn(CC(O)c3cccc(Br)c3)nn2)c1)NO (stereo not given)
REPORTED VALUE: 1.1
--
COMPOUND: O=C(CCCCCCC(=O)Nc1cccc(-c2cnnn2Cc2ccc(F)cc2)c1)NO
REPORTED VALUE: 1.5
--
COMPOUND: O=C(CCCCCCC(=O)Nc1ccc(-c2cnnn2Cc2ccc(F)cc2)cc1)NO
REPORTED VALUE: 0.8
--
COMPOUND: O=C(CCCCCCC(=O)Nc1ccc(-c2cn(CC(O)c3cccc(Br)c3)nn2)cc1)NO (stereo not given)
REPORTED VALUE: 0.8
--
COMPOUND: O=C(CCCCCCC(=O)Nc1cccc(-c2cnnn2-c2ccccc2)c1)NO
REPORTED VALUE: 1.4
--
COMPOUND: O=C(CCCCCCC(=O)Nc1cccc(-c2cn(Cc3ccc(F)cc3)nn2)c1)NO
REPORTED VALUE: 0.5
--
COMPOUND: O=C(CCCCCCC(=O)Nc1ccc(-c2cn(-c3ccccc3)nn2)cc1)NO
REPORTED VALUE: 0.8

Report Ratio IC50 for each item below.
1. O=C(CCCCCCC(=O)Nc1ccc(-c2cnnn2Cc2ccccc2)cc1)NO
2. O=C(CCCCCCC(=O)Nc1cccc(-c2cn(Cc3ccccc3)nn2)c1)NO
3. O=C(CCCCCCC(=O)Nc1ccc(-c2cnnn2-c2ccccc2)cc1)NO
4. O=C(CCCCCCC(=O)Nc1cccc(-c2cnnn2CC(O)c2cccc(Br)c2)c1)NO (stereo not given)
5. O=C(CCCCCCC(=O)Nc1cccc(-c2cnnn2Cc2ccccc2)c1)NO
6. O=C(CCCCCCC(=O)Nc1ccc(-c2cnnn2CC(O)c2cccc(Br)c2)cc1)NO (stereo not given)
7. O=C(CCCCCCC(=O)Nc1ccc(-c2cn(Cc3ccccc3)nn2)cc1)NO

1: 1; 2: 0.8; 3: 1.3; 4: 1.5; 5: 1; 6: 0.9; 7: 0.6

====

Reported values: pIC50 for Histone deacetylase 1 (Homo sapiens), one per item.
Answers are plain numbers, as −log10 of the molar value.

// solved cases for pIC50 follow
COMPOUND: O=C(CCCCCCC(=O)Nc1ccc(-c2cn(CC(O)c3cccc(Br)c3)nn2)cc1)NO (stereo not given)
pIC50: 7.16
--
COMPOUND: O=C(CCCCCCC(=O)Nc1ccc(-c2cn(-c3ccccc3)nn2)cc1)NO
pIC50: 7.57
--
COMPOUND: O=C(CCCCCCC(=O)Nc1cccc(-c2cn(Cc3ccc(F)cc3)nn2)c1)NO
pIC50: 7.75

Dear colleague, could you send me pIC50 for each of the items below? Thanks.
1. O=C(CCCCCCC(=O)Nc1cccc(-c2cn(Cc3ccccc3)nn2)c1)NO
2. O=C(CCCCCCC(=O)Nc1cccc(-c2cnnn2Cc2ccccc2)c1)NO

7.84
7.73

====

Molecular target: Histone deacetylase 8 (Homo sapiens, UniProt Q9BY41)
Sequence (Q9BY41 whole entry): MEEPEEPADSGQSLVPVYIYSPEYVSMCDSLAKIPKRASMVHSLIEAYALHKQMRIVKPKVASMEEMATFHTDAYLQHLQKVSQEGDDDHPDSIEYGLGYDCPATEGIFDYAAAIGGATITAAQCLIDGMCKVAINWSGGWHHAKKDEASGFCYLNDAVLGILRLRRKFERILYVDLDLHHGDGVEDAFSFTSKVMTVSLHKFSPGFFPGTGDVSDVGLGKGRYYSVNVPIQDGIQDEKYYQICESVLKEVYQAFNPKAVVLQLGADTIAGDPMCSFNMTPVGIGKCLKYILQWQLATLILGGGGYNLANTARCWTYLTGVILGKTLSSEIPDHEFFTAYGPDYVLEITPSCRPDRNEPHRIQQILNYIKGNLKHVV
Exercise: state measured IC50 for each of the compounds provided.
Give the value; after it, write the unit.

Recorded results for 5 compounds are shown here.
COMPOUND: O=C(CCCCCCC(=O)Nc1cccc(-c2cnnn2Cc2ccccc2)c1)NO
TEST SYSTEM: Histone deacetylase 8 (Homo sapiens, UniProt Q9BY41)
REPORTED VALUE: 0.433 µM
//
COMPOUND: O=C(CCCCCCC(=O)Nc1ccc(-c2cnnn2-c2ccccc2)cc1)NO
TEST SYSTEM: Histone deacetylase 8 (Homo sapiens, UniProt Q9BY41)
REPORTED VALUE: 0.518 µM
//
COMPOUND: O=C(CCCCCCC(=O)Nc1ccc(-c2cn(Cc3ccccc3)nn2)cc1)NO
TEST SYSTEM: Histone deacetylase 8 (Homo sapiens, UniProt Q9BY41)
REPORTED VALUE: 3.97 µM
//
COMPOUND: O=C(CCCCCCC(=O)Nc1cccc(-c2cn(-c3ccccc3)nn2)c1)NO
TEST SYSTEM: Histone deacetylase 8 (Homo sapiens, UniProt Q9BY41)
REPORTED VALUE: 2.78 µM
//
COMPOUND: O=C(CCCCCCC(=O)Nc1ccc(-c2cn(CC(O)c3cccc(Br)c3)nn2)cc1)NO (stereo unspecified)
TEST SYSTEM: Histone deacetylase 8 (Homo sapiens, UniProt Q9BY41)
REPORTED VALUE: 3.13 µM

Field: next compound
Record summary for O=C(CCCCCCC(=O)Nc1ccc(-c2cnnn2CC(O)c2cccc(Br)c2)cc1)NO (stereo unspecified) : reported IC50 = 0.737 µM
